Target: ATP-dependent molecular chaperone HSP82 (Candida albicans (strain WO-1) (Yeast), UniProt C4YTQ8)
Assay: steroid-induced GRE reporter decrease in yeast – S. cerevisiae, luminescence, Hsp90 inhibitor project, dose response (AID 2400);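 note: beta-galactosidase luminescence from glucocorticoid response element reporter as proxy for Hsp90 function; inhibitor potency where signal loss means Hsp90 inhibition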
Type: functional, cell-based
The source made the active and inactive calls.
measure: EC50

The following molecules have reported results that may help.
- CC(=O)NC(c1cccs1)c1cc([N+](=O)[O-])c2cccnc2c1O (centres undefined): > 150 µM (inactive)
- O=[N+]([O-])c1ccc(O)c(P(=O)(c2ccccc2)c2ccccc2)c1: > 150 µM (inactive)
- O=C(N/N=C/c1cc(Br)c(O)c(Br)c1)c1cc2c(ccc3ccccc32)o1: 0.763 µM (active)

Moving on to the next molecule.
EC50 for "CN(C)S(=O)(=O)Oc1cccc(C(=O)Nc2ccc(Cl)c(Cl)c2)c1" is 18.2 µM (active)

====

Target: Microphthalmia-associated transcription factor (Homo sapiens)
Sequence (O75030 whole entry): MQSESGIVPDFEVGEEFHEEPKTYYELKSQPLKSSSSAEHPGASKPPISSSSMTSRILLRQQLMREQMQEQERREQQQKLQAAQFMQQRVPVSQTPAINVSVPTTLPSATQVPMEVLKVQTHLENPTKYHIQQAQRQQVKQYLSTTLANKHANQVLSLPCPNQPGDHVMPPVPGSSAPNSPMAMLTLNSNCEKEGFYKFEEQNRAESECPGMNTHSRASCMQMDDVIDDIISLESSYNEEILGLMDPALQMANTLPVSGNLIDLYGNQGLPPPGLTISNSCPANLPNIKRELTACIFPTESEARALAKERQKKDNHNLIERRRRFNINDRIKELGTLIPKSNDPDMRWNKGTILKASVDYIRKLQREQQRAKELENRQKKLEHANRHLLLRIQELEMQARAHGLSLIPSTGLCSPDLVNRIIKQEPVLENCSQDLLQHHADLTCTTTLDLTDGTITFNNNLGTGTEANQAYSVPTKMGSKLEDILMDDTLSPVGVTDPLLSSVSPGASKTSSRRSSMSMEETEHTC
Assay: reducers of TRPM1 reporter luminescence, concentration series – cell-based, SK-MEL-5, cherry-picked, set 3, MITF inhibitor project, dose response (AID 493073);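 note: SK-MEL-5 melanoma cells with luciferase driven by the MITF target TRPM1 promoter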
Format: functional
Activity calls are given as the source filed them.
measure: AC50

• O=C(Nc1nc(-c2ccccn2)cs1)c1ccccc1-n1cnnn1 = 6.96 µM (active)
• CCCCCn1cc[n+](C2=C([N-]S(=O)(=O)c3ccccc3)C(=O)c3ccccc3C2=O)c1 = 5.9 µM (active)
• CC(C)c1oc(=O)cc2c1[C@@H](O)[C@H]1OC(=O)[C@@]3(C)C[C@@H](O)[C@@H](O)[C@@]2(C)C13 (stereo partly specified) = 1.63 µM (active)
• CC1CCCCC1NC(=O)/C(C#N)=C/c1ccccc1F (stereo unspecified) = 14.4 µM (active)
• CCC(=O)N1CCN(c2ccc(NC(=O)c3ccc([N+](=O)[O-])o3)cc2Cl)CC1 = 6.09 µM (active)

Moving on to the next compound.
AC50 for "CN(C)S(=O)(=O)c1ccc(-c2csc(N/N=C/c3ccco3)n2)cc1" is 3.9 µM (active)

====

Biological target: Nucleotide-binding oligomerization domain-containing protein 2 (Homo sapiens, UniProt Q9HC29)
Sequence (Q9HC29 whole entry, the tested form may be a part): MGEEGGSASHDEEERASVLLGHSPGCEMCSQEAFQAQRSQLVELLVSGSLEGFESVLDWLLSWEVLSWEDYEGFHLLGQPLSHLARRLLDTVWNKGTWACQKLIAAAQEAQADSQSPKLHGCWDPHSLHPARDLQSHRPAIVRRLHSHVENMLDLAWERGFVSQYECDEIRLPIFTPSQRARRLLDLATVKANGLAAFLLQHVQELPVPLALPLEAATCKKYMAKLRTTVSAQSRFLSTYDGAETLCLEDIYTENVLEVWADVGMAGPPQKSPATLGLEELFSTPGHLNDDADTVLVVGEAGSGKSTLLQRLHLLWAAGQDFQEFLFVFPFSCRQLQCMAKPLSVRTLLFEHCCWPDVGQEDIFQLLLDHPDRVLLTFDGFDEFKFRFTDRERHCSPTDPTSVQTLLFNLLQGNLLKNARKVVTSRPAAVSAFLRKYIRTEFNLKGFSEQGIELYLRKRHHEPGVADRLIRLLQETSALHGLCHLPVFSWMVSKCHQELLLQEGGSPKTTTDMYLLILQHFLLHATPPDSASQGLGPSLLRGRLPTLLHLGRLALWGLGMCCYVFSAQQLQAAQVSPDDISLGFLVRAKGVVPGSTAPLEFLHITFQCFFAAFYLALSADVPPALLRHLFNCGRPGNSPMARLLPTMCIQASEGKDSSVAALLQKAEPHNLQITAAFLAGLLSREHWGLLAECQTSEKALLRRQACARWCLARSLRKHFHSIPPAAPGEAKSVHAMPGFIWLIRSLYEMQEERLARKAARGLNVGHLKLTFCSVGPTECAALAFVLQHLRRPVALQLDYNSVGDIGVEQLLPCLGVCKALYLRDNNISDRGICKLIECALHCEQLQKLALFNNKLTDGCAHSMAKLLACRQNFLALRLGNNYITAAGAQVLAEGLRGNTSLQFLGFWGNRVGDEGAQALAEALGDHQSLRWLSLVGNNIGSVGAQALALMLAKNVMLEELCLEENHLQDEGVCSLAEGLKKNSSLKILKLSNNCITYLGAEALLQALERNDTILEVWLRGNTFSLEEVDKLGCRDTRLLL
Test: inhibition of NOD2-driven NF-kB reporter – cell-based, luminescence, uHTS, HEK293 (AID 1566)
Assay type: functional
Activity calls are given as the source filed them.
Outcome field: choose from active, inactive

Examples with answers:
* COc1cc(C(=O)Nc2scc(-c3ccc(Br)cc3)c2C(=O)O)cc(OC)c1OC | active
* CCCCn1c(SCC(=O)N2CCN(c3ccccc3)CC2)nc2ccsc2c1=O | active
* O=C(c1[nH]ncc1-c1ccc(Cl)cc1)C1CO1 (centres undefined) | inactive

Proceed to the following item.
// query // param item: "Cc1ccc(C(C)C)c(OCc2ccc(-c3nnco3)cc2)c1" ; yields the recorded call
// result active

====

Target: Serine/threonine-protein phosphatase (Candida dubliniensis (strain CD36 / CBS 7987 / NCPF 3949 / NRRLY-17841) (Yeast), UniProt B9W6M3)
Sequence (B9W6M3 whole entry): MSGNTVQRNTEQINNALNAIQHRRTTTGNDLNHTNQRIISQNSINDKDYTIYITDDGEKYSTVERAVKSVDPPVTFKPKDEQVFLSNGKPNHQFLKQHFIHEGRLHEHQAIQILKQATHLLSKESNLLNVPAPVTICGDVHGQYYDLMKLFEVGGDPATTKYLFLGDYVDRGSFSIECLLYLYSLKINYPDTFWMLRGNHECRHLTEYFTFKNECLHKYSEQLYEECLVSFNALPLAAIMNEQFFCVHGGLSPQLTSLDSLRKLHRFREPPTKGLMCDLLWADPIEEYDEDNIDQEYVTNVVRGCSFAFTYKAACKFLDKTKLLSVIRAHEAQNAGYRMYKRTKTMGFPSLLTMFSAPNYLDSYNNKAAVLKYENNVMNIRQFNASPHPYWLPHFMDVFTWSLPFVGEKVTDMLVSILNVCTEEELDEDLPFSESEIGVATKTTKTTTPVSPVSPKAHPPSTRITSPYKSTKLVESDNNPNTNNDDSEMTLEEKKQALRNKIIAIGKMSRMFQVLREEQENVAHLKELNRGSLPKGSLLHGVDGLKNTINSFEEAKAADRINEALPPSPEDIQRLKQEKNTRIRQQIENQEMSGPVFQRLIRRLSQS
Test: blockers of CaCl2-induced CDRE-lacZ signaling – S. cerevisiae, luminescence, secondary, dose response (AID 2388);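 note: yeast reporter cells carrying a calcineurin-responsive lacZ construct stimulated with calcium chloride; luminescent beta-galactosidase reporter signal in whole cells rather than isolated phosphatase activity; potency for inhibition where a drop in reporter signal means calcineurin blockade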
Assay type: functional, cell-based
Activity calls are given as the source filed them.
Outcome field: choose from Y = active, N = inactive

* O=C(N/N=C/c1cc(Br)c(O)c(Br)c1)c1cc2c(ccc3ccccc32)o1 | Y
* CN(C)S(=O)(=O)Oc1cccc(C(=O)Nc2ccc(Cl)c(Cl)c2)c1 | N
* CC(=O)NC(c1cccs1)c1cc([N+](=O)[O-])c2cccnc2c1O (centres undefined) | N

// query // param item: "O=[N+]([O-])c1ccc(O)c(P(=O)(c2ccccc2)c2ccccc2)c1" ; yields the recorded call
// result N

====

# Protein-tyrosine kinase 2-beta (Homo sapiens, UniProt Q14289): IC50 values follow;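 note: potency of inhibitors of PYK2 kinase phosphorylation of poly-GT substrate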
Active and inactive are the calls of the source.

• C=C(c1cccc2ccccc12)P(=O)(O)O = 27 µM (not active)
• COc1cc(C2Nc3ccc4ncccc4c3C3=C2C(=O)CC(C)(C)C3)cc(OC)c1O (stereo unspecified) = 16.4 µM (not active)
• Nc1ncnc2oc(-c3ccco3)c(-c3ccco3)c12 = 2.92 µM (active)
• COc1nnc(-c2ccc(N3CCCCC3)c(NC(C)=O)c2)c2ccccc12 = > 69.5 µM (not active)
• CCc1ccc(OCC(=O)Nc2ccc(-c3nc4ccccc4o3)c(O)c2)cc1 = > 69.5 µM (not active)

Moving on to the next compound.
Given the compound "Cc1cc2cc3c(N)[nH]nc3nc2cc1C" and test system Protein-tyrosine kinase 2-beta (Homo sapiens, UniProt Q14289), the measured IC50 is > 69.5 µM (not active)

====

Biological target: Fatty acid synthase (Homo sapiens, UniProt P49327)
Sequence (P49327 whole entry): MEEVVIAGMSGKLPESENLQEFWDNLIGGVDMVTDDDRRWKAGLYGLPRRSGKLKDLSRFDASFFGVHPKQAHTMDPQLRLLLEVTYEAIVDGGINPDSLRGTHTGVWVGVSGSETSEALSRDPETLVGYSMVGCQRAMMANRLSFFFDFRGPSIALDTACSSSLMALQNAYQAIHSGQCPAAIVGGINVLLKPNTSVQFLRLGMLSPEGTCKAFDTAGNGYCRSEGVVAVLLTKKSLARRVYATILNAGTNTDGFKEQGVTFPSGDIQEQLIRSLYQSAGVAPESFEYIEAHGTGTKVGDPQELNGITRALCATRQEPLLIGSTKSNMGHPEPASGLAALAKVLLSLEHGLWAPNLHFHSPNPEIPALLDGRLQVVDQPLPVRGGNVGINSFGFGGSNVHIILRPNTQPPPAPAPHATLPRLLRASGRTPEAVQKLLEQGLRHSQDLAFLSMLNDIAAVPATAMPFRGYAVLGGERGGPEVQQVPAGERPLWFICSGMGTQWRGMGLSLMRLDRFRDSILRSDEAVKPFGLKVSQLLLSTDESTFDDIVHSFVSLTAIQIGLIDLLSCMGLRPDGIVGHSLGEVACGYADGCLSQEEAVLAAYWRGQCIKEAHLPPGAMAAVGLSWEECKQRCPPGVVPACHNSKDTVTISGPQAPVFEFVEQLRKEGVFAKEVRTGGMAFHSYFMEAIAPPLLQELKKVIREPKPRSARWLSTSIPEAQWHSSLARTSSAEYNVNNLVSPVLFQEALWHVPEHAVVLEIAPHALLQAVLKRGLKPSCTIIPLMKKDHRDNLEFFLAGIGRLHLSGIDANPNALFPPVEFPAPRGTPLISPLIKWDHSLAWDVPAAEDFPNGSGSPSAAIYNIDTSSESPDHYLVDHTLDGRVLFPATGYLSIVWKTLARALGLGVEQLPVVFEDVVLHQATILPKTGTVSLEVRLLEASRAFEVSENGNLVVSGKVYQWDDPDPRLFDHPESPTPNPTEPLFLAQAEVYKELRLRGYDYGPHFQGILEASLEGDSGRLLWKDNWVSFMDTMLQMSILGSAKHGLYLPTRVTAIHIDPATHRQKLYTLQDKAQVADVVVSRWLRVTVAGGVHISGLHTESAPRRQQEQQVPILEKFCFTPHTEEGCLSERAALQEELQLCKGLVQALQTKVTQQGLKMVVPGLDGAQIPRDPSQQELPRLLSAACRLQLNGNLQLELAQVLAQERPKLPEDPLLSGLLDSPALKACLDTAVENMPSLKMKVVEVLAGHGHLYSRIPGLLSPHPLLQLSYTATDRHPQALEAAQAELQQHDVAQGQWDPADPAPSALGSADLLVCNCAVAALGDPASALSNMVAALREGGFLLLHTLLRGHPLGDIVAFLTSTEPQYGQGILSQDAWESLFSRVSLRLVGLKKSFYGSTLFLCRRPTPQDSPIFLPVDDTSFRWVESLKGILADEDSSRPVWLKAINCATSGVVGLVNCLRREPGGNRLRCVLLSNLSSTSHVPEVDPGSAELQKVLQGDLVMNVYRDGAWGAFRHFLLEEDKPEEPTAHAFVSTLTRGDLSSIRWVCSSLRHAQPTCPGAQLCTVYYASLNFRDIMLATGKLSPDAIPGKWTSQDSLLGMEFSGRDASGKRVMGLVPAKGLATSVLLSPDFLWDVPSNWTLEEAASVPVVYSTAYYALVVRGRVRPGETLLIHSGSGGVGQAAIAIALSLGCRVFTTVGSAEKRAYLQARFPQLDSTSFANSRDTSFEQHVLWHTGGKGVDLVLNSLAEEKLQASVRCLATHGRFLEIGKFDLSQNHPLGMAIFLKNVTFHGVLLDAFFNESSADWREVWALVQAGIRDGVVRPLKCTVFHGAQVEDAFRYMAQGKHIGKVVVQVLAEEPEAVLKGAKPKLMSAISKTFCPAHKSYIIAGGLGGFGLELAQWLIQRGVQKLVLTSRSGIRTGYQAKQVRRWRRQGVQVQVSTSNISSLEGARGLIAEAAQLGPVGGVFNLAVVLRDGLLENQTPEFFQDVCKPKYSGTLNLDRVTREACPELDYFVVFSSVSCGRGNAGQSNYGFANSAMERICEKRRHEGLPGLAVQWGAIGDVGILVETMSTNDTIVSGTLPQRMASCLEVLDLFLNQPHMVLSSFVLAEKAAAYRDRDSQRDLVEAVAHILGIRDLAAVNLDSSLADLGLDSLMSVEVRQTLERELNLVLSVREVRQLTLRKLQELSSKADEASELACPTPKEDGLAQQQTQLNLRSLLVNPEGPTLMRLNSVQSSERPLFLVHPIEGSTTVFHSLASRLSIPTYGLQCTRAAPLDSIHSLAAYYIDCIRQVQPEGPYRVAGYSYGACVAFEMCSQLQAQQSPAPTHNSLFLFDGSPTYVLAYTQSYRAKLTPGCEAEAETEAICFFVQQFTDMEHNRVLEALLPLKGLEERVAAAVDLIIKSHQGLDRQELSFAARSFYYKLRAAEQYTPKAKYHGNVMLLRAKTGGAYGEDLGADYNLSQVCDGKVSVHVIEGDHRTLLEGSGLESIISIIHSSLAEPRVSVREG
Experiment: inhibition of human FAS-TE enzyme activity – biochemical, kinetic fluorescence intensity, dose response (AID 624326);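 note: rate of fluorescence rise from hydrolysis of a fluorogenic O-methyl fluorescein ester substrate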
Format: functional
The source made the active and inactive calls.
measure: IC50

The following compounds have reported results that may help.
- O=C(NC(C(=O)N/N=C/c1cc([N+](=O)[O-])ccc1O)c1nnc(O)c2ccccc12)c1ccccc1 (stereo not drawn): 2550 nM (active)
- CCc1cccc2sc(N3CCN(C(=O)c4ccc([N+](=O)[O-])o4)CC3)nc12: 12900 nM (active)

Moving on to the next compound.
IC50 for O=C(CC1C[C@H](C(=O)N2CCOCC2)[C@@]2(CCC3CCCC3)c3[nH]c4ccccc4c3CCN2C1=O)NCCc1ccccn1 (stereo partly drawn) is 1090 nM (active)

====

# IC50 per record follows
Target: UniProt P00748
Sequence (P00748 20-372 limits assumed): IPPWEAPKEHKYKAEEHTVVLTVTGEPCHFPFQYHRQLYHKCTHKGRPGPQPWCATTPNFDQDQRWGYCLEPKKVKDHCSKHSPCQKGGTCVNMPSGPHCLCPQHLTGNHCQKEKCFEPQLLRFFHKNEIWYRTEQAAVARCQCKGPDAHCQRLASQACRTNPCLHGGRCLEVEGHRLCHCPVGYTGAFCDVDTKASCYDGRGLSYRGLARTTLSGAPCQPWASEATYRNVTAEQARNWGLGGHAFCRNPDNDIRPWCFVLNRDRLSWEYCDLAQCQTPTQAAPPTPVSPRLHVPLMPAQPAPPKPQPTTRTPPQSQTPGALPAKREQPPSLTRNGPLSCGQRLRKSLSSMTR
Sequence (P00748 373-615 limits assumed): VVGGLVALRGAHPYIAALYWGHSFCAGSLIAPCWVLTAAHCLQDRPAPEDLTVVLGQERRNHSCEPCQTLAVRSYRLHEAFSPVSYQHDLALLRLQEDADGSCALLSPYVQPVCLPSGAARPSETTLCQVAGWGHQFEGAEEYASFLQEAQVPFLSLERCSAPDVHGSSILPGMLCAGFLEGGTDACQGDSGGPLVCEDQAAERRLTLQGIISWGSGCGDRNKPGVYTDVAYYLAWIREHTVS
Format: functional
The source made the active and inactive calls.

- COC(=O)c1ccc(NCC(=O)Nc2cc(C)cc(C)c2)cc1: > 50 µM (inactive)
- N#Cc1c2n(c3c(=O)n(Cc4ccccc4)cnc13)CCCC2: > 50 µM (inactive)
- Cc1ccc(-n2ncc3c(O)ncnc32)c(C)c1: > 50 µM (inactive)

Moving on to the next compound.
IC50 for "O=[N+]([O-])c1ccc2c(c1)c1ccccc1n2CCO" is > 50 µM (inactive)

====

Biological target: Short transient receptor potential channel 4 (Mus musculus)
Test: calcium entry via TRPC4 opening agents – cell-based, HEK293 TRPC4/mu-opioid, Fluo-4 calcium, dose response (AID 434937)
Format: functional
Activity calls are given as the source filed them.
# EC50 per record follows

- CCn1c(N2CCN(Cc3ccc([N+](=O)[O-])cc3)CC2)nc2ccccc21: 133 nM (active)
- O=[N+]([O-])c1ccc(N2CCNCC2)c(Cl)c1: 596 nM (active)
- CCC(=O)N1CCc2cc(Br)cc(S(=O)(=O)NCCCN(CC)Cc3ccccc3)c21: 13.3 nM (active)

EC50 for "CN(C)c1ccc(NC(=S)N2CCN(c3ncc(C(F)(F)F)cc3Cl)CC2)cc1" is 2660 nM (active)

EC50 for CN(C)C(CN=C(S)Nc1cccc(Cl)c1)c1ccccc1 (configuration not stated) is 596 nM (active)

EC50 for "CN(C)CCCN(C(=O)c1ccc(S(=O)(=O)N(C)Cc2ccccc2)cc1)c1nc2cc3c(cc2s1)OCO3" is 9440 nM (active)

EC50 for O=C(c1ccc2c3c(cccc13)CC2)C1CCCN(CC2CC2)C1 (configuration not stated) is 841 nM (active)

====

Biological target: UniProt:P61088
Sequence (P61088 whole entry): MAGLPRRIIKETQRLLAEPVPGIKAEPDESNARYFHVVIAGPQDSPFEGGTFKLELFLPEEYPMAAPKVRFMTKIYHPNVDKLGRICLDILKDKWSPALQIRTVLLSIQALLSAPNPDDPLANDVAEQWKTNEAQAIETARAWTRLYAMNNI
Type: functional
Activity calls are given as the source filed them.
measure: IC50

• CCCC(C(=O)NC(C)(C)C)N(C(=O)c1snc(C(N)=O)c1N)c1ccc2c(c1)OCCO2 (centres undefined) = 10.2 µM (active)

IC50 for O=C(NCC1CCN(Cc2cccc(Cl)c2)CC1)C1CCCN(c2ncnc3c2nc2n3CCCCC2)C1 (centres undefined) is 1.89 µM (active)

IC50 for "C#CCOCCOCCOCCNc1nc(N2CCN(C(=O)CCCCCCCCCCNC(=O)[C@H]([C@@H](C)CC)n3cc(CCCCCN)nn3)CC2)nc(N2CCN(C(=O)CCCCCCCCCCNC(=O)[C@H](CO)n3cc(CCCCCN)nn3)CC2)n1" is 2.64 µM (active)

IC50 for "CN(C)CCCN(C(=O)c1ccc(S(=O)(=O)N(C)Cc2ccccc2)cc1)c1nc2cc3c(cc2s1)OCO3" is 5.54 µM (active)
